Where do these numbers come from? They come from patent US20180036441A1.

Recorded geometric mean values for a group of binders are listed next.
Biological target: T1, MUC1 on HCT116/MUC1 cells (UniProt P15941 24-1255, limits assumed)
T1 construct: whole, on cells; also called MUC1 overexpressed cell line
T1 sequence (P15941 24-1255 limits assumed): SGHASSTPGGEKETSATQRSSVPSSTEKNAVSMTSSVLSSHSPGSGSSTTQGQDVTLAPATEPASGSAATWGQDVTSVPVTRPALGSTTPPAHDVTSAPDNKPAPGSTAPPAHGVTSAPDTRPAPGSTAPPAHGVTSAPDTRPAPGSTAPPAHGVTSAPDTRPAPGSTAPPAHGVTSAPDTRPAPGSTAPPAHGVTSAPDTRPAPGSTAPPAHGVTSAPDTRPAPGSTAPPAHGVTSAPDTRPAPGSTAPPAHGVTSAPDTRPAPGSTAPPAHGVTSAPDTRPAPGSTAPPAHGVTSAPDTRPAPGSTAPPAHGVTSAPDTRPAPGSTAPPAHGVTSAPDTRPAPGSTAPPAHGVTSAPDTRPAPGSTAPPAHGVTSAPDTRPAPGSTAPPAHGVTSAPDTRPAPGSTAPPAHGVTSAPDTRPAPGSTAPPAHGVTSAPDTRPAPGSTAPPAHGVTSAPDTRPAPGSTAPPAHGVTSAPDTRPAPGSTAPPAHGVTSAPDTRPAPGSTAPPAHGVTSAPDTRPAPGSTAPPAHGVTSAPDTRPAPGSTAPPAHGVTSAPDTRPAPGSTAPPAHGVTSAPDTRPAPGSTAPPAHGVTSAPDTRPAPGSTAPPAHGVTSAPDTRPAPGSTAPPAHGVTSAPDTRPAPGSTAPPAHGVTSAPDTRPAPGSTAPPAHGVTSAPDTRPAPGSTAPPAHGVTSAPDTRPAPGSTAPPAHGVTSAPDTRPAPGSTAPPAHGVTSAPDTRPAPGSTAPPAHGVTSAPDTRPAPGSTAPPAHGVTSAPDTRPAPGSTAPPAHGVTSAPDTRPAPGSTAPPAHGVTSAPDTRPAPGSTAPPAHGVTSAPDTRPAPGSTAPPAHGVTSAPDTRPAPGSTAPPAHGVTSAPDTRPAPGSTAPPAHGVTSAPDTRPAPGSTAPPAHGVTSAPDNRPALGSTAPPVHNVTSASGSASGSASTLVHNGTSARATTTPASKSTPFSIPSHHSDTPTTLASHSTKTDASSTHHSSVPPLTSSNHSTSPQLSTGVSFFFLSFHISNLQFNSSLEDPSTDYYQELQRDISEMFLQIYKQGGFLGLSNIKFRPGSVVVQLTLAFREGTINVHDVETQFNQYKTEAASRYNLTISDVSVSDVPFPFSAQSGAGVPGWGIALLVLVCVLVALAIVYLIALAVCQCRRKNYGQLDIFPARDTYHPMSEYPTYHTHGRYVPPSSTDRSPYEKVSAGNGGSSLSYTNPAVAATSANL
Test: FACS titration, HCT116/MUC1 cells, antibody at 0.977 nM
Reported metric: geometric mean

binder="VH3 + VL3 (antibody, V domains shown, Humanized IgG expressed in HEK293; also called humanized antibody VH3+VL3) VH: QVQLVQSGAEVKKPGASVKVSCKASGYAFSNFWMNWVRQAPGQGLEWMGQIYPGDGDTNYNGKFKGRVTMTRDTSISTAYMELSRLRSDDTAVYYCARSYYRSAWFAYWGQGTLVTVSS VL: EIVLTQSPATLSLSPGERATLSCRASQSIGTSIHWYQQKPGQAPRLLIYYASESISGIPARFSGSGSGTDFTLTISSLEPEDFAVYYCQQSNNWPLTFGGGTKVEIK" readout_value=2.95
binder="VH4 + VL1 (antibody, V domains shown, Humanized IgG expressed in HEK293; also called humanized antibody VH4+VL1) VH: QVQLVQSGAEVKKPGATVKISCKVSGYAFSNFWMNWVQQAPGKGLEWMGQIYPGDGDTNYNGKFKGRVTITADTSTDTAYMELSSLRSEDTAVYYCARSYYRSAWFAYWGQGTLVTVSR VL: EIVLTQSPDFQSVTPKEKVTITCRASQSIGTSIHWYQQKPDQSPKLLIKYASESISGVPSRFSGSGSGTDFTLTINSLEAEDAATYYCQQSNNWPLTFGQGTKVEIK" readout_value=2.51
binder="VH5 + VL1 (antibody, V domains shown, Humanized IgG expressed in HEK293; also called humanized antibody VH5+VL1) VH: EVQLVQSGAEVKKPGESLKISCKGSGYAFSNFWMNWVRQMPGKGLEWMGQIYPGDGDTNYNGKFKGQVTISADKSISTAYLQWSSLKASDTAMYYCARSYYRSAWFAYWGQGTLVTVSL VL: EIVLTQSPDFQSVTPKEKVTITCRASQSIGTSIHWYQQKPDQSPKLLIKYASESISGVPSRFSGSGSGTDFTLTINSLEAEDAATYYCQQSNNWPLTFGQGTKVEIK" readout_value=4.25
binder="VH2 + VL1 (antibody, V domains shown, Humanized IgG expressed in HEK293; also called humanized antibody VH2+VL1) VH: QVQLVQSGAEVKKPGASVKVSCKASGYAFSNFWMNWVRQAPGQGLEWMGQIYPGDGDTNYNGKFKGRVTMTRDTSTSTVYMELSSLRSEDTAVYYCARSYYRSAWFAYWGQGTLVTVSS VL: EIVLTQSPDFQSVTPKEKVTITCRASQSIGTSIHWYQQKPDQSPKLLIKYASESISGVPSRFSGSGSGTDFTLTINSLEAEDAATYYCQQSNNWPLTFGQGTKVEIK" readout_value=3.68
binder="VH5 + VL4 (antibody, V domains shown, Humanized IgG expressed in HEK293; also called humanized antibody VH5+VL4) VH: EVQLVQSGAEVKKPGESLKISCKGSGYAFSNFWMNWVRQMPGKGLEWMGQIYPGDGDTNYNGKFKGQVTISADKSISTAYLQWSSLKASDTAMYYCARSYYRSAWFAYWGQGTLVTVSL VL: AIQLTQSPSSLSASVGDRVTITCRASQSIGTSIHWYQQKPGKAPKLLIYYASESISGVPSRFSGSGSGTDFTLTISSLQPEDFATYYCQQSNNWPLTFGGGTKVEIK" readout_value=4.01
binder="VH2 + VL3 (antibody, V domains shown, Humanized IgG expressed in HEK293; also called humanized antibody VH2+VL3) VH: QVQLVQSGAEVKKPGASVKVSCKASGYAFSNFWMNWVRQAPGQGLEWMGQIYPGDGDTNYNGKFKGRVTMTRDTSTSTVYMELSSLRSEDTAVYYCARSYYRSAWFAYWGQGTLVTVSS VL: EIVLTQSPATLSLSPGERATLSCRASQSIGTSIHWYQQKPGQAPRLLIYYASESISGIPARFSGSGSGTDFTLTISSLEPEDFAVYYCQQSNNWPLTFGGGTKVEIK" readout_value=2.83
binder="VH2 + VL4 (antibody, V domains shown, Humanized IgG expressed in HEK293; also called humanized antibody VH2+VL4) VH: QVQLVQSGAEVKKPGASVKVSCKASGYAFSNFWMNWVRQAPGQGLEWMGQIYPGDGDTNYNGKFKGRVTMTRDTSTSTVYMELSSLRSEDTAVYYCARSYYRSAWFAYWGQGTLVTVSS VL: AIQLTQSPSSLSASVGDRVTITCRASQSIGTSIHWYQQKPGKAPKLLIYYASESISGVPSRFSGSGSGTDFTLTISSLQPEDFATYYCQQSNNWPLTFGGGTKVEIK" readout_value=3.76
